# procedure.summary: Comparative studies: intracellular drug concentration relative to LINE-1 IC50 and huCSF/Plasma ratio
# condition.details: Table 13 Comparative Studies
measurement.name: Human Line-1 Intracellular drug conc. (% of IC-50 conc.) (%)

Worked examples follow.
• Cc1cn([C@H]2C=C[C@@H](CO)O2)c(=O)[nH]c1=O [Stavudine] = 63
• Nc1ccn([C@@H]2CS[C@H](CO)O2)c(=O)n1 [Lamivudine] = 9

a: Nc1nc(=O)n([C@@H]2CS[C@H](CO)O2)cc1F [Emtricitabine]
b: Nc1nc(NC2CC2)c2ncn([C@H]3C=C[C@@H](CO)C3)c2n1 [Abacavir (ABC), Abacavir]
Sort a and b by Human Line-1 Intracellular drug conc. (% of IC-50 conc.) descending and give the first. Selection: enter the item's label.
b
(b: 106%, a: 67%)

====

IC50: recorded values
# System: human LINE-1
# procedure.summary: Human LINE-1 retrotransposition assay (dual luciferase pYX017 reporter, HeLa cells, Table 11)
# Format: cell-based
# condition.details: pYX017, 72 H post-transfection, read-out: Human L1 activity inhibition IC50, Exp. 1
Write the number in nM without appending the unit.

* C#C[C@@]1(CO)C=C[C@H](n2cc(C)c(=O)[nH]c2=O)O1 | 53
* Nc1ccn([C@@H]2CS[C@H](CO)O2)c(=O)n1 | 793

Fill blank: measured IC50 of the molecule Nc1nc(=O)n([C@@H]2C=C[C@H](CO)O2)cc1F is ____.
94

====

# procedure.summary: 3TC concentration in mouse plasma
# Type: in vivo
# condition.details: both sexes, C57BL/6J, oral, mice, 2 mg/mL in drinking water cohort, tail bleed at 20 months of age
# Description: C57BL/6J mice of both sexes were obtained from the NIA Aged Rodent Colonies^61 at 5 and 18 months of age. The 5-month old animals were sacrificed after a short (1 week) acclimatization period, a variety of tissues were harvested, snap frozen in LN2 and stored at −80° C. The 18-month old animals were housed until they reached a desired age. Mice were housed in a specific pathogen-free AAALAC-certified barrier facility. […]
measurement.name: concentration at 2 months of continuous dosing (sampled at 20 months of age) (µM)
Reply with just the number (in µM).

# concentration at 2 months of continuous dosing (sampled at 20 months of age) lookup, item Nc1ccn([C@@H]2CS[C@H](CO)O2)c(=O)n1
7.2
